Values from ChEMBL document CHEMBL3576847

molecular target: Serine/threonine-protein kinase B-raf (Homo sapiens, UniProt P15056, V600E); assay: Inhibition of BRAF V600E mutant in human A375 cells assessed as inhibition of ERK phosphorylation measured after 72 hrs by ELISA assay; type: cell-based, A-375
Sequence (P15056 2-766 V600E limits assumed): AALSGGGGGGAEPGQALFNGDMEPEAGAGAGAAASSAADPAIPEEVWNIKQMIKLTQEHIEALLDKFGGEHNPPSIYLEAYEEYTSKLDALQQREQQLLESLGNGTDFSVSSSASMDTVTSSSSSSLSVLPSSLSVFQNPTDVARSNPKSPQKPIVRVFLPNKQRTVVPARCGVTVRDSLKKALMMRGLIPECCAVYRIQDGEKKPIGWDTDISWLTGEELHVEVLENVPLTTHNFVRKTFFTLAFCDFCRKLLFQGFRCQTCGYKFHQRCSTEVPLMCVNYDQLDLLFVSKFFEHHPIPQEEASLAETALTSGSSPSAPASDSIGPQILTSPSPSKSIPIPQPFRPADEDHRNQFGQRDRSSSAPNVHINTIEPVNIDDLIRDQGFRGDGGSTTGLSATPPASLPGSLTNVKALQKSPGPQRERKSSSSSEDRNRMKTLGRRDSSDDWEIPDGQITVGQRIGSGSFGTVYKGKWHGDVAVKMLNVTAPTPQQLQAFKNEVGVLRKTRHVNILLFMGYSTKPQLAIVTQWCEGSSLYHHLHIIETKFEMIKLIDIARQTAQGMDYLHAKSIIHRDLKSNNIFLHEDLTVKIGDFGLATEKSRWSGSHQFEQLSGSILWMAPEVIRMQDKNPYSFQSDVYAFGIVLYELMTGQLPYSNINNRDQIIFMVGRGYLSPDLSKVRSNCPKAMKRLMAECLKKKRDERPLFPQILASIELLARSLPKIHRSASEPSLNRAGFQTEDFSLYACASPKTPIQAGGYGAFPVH
Test Readout: IC50 (nM)
Expressed in nM, but write only the number.

Could you please provide reported IC50 for CNc1cc2nc(C)c(-c3ccc(F)c(NC(=O)NCCC(C)(C)C)c3)cc2cn1 ? Thanks!
82

Supply measured IC50 of CNc1ncc2cc(-c3cc(NC(=O)NCCC(C)(C)C)c(F)cc3C)cnc2n1 in your reply.
27

Supply measured IC50 of CNc1cc2c(cn1)cc(-c1ccc(F)c(NC(=O)Nc3cc(C(C)(C)C)no3)c1)c(=O)n2[C@H]1CCOC1 in your reply.
6.8

Return value of IC50 for input CCn1c(=O)c(-c2ccc(F)c(NC(=O)Nc3cc(C(C)(C)C)no3)c2)cc2cnc(NC)cc21 , no commentary.
96

Answer with the recorded IC50 for the molecule listed here: CNc1cc2nc(C)c(-c3cc(NC(=O)NC[C@@H](O)C(C)(C)C)c(F)cc3C)cc2cn1
22

Note IC50 for the molecule shown: CNc1cc2nc(C)c(-c3cc(NC(=O)NCCC(C)(C)C)ccc3C)cc2cn1
140

Name the recorded IC50 of the molecule listed here: CCn1c(=O)c(-c2cc(NC(=O)NCCC(C)(C)C)c(F)cc2C)cc2cnc(NC)cc21
40

Give the measured IC50 for CNc1cc2nc(C)c(-c3cc(NC(=O)NCCC(C)(C)C)c(F)cc3C)cc2cn1
47

Tell us which IC50 value is on record for CNc1ncc2cc(-c3ccc(F)c(NC(=O)NCCC(C)(C)C)c3)c(C)nc2n1
110

---

assay: Cmax in Sprague-Dawley rat at 10 mg/kg, po administered as suspension in 1% HEC; type: ADME, organism-based; set-up: dose 10 mg/kg, route oral; conditions: in vivo
Test Readout: Cmax (ng/mL)
The response must be a number in ng/mL with no trailing unit.

Specify reported Cmax for the molecule shown: CNc1ncc2cc(-c3cc(NC(=O)NCCC(C)(C)C)c(F)cc3C)c(C)nc2n1 [LY-3009120]
34.4

---

test: AUC (0 to 24 hrs) in dog at 10 mg/kg, po administered as solid suspension; type: ADME, organism-based, Canis lupus familiaris; design: time < 24 hr, dose 10 mg/kg, route oral; details: in vivo
Test Readout: AUC(0-t) at 24 h (ng·h/mL)
The answer is to be given in ng·h/mL; state only the numeric part.

Answer with the recorded AUC(0-t) at 24 h of CNc1ncc2cc(-c3cc(NC(=O)NCCC(C)(C)C)c(F)cc3C)c(C)nc2n1 only.
2090

---

assay: Oral bioavailability in dog administered as suspension; format: ADME, organism-based, Canis lupus familiaris; details: in vivo
Test Readout: bioavailability

Note bioavailability for the compound shown: CCn1c(=O)c(-c2ccc(F)c(NC(=O)Nc3cc(C(C)(C)C)no3)c2)cc2cnc(NC)cc21
69%

In one line, give reported bioavailability of the entry CNc1cc2c(cn1)cc(-c1ccc(F)c(NC(=O)Nc3cc(C(C)(C)C)no3)c1)c(=O)n2[C@H]1CCOC1 .
< 10%

---

experiment: Clearance in po dosed rat administered as suspension; assay type: ADME, organism-based; conditions: in vivo
Assign CL/F to each entry below.
Give a bare numeral; the unit mL/min/kg is implied.

Return CL/F for the following molecule: CCn1c(=O)c(-c2ccc(F)c(NC(=O)Nc3cc(C(C)(C)C)no3)c2)cc2cnc(NC)cc21
13

Quickly give me recorded CL/F for CNc1cc2c(cn1)cc(-c1ccc(F)c(NC(=O)Nc3cc(C(C)(C)C)no3)c1)c(=O)n2[C@H]1CCOC1
50
